Target: human GST-CLK1 (Homo sapiens, UniProt P49759)
Sequence (P49759 129-484 limits assumed): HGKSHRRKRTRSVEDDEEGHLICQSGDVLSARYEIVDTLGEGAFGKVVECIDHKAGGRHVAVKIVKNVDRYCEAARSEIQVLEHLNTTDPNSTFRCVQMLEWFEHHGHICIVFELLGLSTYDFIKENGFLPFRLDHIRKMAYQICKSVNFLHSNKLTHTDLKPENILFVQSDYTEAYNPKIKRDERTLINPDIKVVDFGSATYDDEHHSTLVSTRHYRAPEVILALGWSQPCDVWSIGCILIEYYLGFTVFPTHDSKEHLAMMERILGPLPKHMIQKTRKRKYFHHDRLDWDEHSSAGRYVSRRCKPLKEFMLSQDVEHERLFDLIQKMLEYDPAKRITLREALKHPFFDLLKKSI
pIC50: −log10 of the molar value.
measured_parameter: pIC50

## Input Consider the compound O=C(c1ccc(Nc2nc(NC3CCCC3)c3cc[nH]c3n2)c2c1OCCO2)N1CCOCC1 [Example 48] and give its measured pIC50.
## Output 6.00 to 6.52

## Input Also check CCN1CCP(=O)(c2ccc(Nc3nc(C4CC4)c4c(C#N)c[nH]c4n3)c(OC)c2)CC1 [Example 261]
## Output > 7.00

## Input # iterate: N#Cc1c[nH]c2nc(Nc3ccc(C(=O)N4CCOCC4)c4c3OCCO4)nc(NC3CCC3)c12 [Example 125]
## Output 6.52 to 7.00

## Input What about this compound? CC[C@H](C)Nc1nc(Nc2ccc(S(=O)(=O)N3CCOCC3)cc2OC)nc2[nH]ccc12 [Example 60]
## Output 6.00 to 6.52

## Input Would you mind doing CCNc1nc(Nc2ccc(C(=O)N3CCOCC3)c3c2OCC3)nc2[nH]cc(C(F)(F)F)c12 [Example 437] as well?
## Output > 7.00

## Input And COCCNc1nc(Nc2ccc(S(C)(=O)=O)cc2OC)nc2[nH]cc(C#N)c12 [Example 103] ?
## Output 6.00 to 6.52

## Input Then CCN1CCP(=O)(c2ccc(Nc3nc(NC4CCCCC4)c4c(C#N)c[nH]c4n3)c(OC)c2)CC1 [Example 151] ?
## Output 6.52 to 7.00

## Input Lookup COCCNc1nc(Nc2ccc(P(C)(C)=O)cc2OC)nc2[nH]cc(C#N)c12 [Example 115]
## Output > 7.00

* * *

Biological target: LRRK2 (G2019S) (Homo sapiens, UniProt Q5S007, G2019S)
Sequence (Q5S007 970-2527 G2019S limits assumed): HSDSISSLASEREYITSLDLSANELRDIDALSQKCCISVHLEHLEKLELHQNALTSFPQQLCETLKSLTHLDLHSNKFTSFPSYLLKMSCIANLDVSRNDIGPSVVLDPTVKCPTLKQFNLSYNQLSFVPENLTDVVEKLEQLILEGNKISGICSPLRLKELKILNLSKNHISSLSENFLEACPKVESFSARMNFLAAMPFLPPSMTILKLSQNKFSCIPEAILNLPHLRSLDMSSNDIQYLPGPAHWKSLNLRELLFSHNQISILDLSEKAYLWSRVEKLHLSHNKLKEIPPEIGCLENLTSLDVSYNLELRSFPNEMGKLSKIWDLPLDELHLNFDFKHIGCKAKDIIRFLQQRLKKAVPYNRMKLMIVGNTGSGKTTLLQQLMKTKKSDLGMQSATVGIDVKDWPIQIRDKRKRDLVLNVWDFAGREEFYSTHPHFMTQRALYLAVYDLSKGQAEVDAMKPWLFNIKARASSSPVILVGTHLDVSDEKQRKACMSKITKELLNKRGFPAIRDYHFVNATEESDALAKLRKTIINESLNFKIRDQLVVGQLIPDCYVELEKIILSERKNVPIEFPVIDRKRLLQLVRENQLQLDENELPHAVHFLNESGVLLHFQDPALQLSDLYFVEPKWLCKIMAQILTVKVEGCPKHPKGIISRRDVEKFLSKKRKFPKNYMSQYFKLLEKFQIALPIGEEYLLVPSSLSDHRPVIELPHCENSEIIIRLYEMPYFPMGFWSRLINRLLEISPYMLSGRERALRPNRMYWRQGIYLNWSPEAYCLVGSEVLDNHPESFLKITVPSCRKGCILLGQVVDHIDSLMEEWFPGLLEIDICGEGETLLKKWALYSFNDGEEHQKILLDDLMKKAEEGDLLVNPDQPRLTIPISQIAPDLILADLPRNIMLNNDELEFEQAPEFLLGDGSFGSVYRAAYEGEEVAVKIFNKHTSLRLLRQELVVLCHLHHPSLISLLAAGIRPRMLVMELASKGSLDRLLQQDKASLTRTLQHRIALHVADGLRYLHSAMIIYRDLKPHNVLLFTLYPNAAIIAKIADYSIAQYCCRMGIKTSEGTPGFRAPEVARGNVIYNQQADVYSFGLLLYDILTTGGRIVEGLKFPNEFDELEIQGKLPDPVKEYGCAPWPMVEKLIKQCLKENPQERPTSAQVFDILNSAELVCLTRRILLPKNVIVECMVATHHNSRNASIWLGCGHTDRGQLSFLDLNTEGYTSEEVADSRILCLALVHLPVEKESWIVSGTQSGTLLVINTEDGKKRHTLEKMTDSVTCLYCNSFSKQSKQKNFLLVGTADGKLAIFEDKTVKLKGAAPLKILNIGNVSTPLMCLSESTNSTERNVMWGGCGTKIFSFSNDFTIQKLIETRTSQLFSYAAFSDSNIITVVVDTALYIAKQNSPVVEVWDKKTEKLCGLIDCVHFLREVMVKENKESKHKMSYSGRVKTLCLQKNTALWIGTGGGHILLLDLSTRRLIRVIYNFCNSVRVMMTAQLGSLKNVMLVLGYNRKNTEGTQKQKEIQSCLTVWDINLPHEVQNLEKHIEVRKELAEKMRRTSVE
Experiment: LRRK2 G2019S enzyme inhibition, ADP-Glo kinase assay
Format: biochemical
Set-up: purchased SignalChem L10-12GG
Conditions: ATP 25 μM
pIC50: −log10 of the molar value.
# key: entry, value: pIC50

# smiles_code, tested_system, measured_parameter, experimental_value
data = [
    ("CCNc1nc(Nc2ccc(C(=O)N3CCC(N4C[C@@H]5C[C@H]4CO5)CC3)c3c2OCC3)nc2[nH]cc(C(F)(F)F)c12", "LRRK2 (G2019S) (Homo sapiens, UniProt Q5S007, G2019S)", "pIC50", "> 7.00"),
    ("COc1cc(P2(=O)CCN(C3CC3)CC2)ccc1Nc1nc(NC2CCC2)c2c(C(F)(F)F)c[nH]c2n1", "LRRK2 (G2019S) (Homo sapiens, UniProt Q5S007, G2019S)", "pIC50", "6.52 to 7.00"),
]

Kindly review the next compound as well.
## Input Value lookup for pIC50; key = CNc1nc(Nc2ccc(S(C)(=O)=O)cc2OC)nc2[nH]cc(C(F)(F)F)c12
## Output > 7.00

* * *

Biological target: human GST-DYRK1A (Homo sapiens)
measured_parameter: IC50

Previously resolved entries follow.
# compound, experimental_value
data = [
    ("COCCNc1nc(Nc2ccc(S(=O)(=O)N3CCOCC3)cc2OC)nc2[nH]ccc12", "301 to 1000 nM"),
    ("CCCNc1nc(Nc2ccc(C(=O)N3CCOCC3)c3c2OCCO3)nc2[nH]cc(C#N)c12", "101 to 300 nM"),
    ("CCNc1nc(Nc2ccc(C(=O)N3CCC(N4CCOCC4)CC3)c3c2OCC3)nc2[nH]cc(C#N)c12", "< 100 nM"),
    ("COc1cc(S(=O)(=O)N2CCOCC2)ccc1Nc1nc(NCC2CCCC2)c2cc[nH]c2n1 [Example 40, 2,2,2-trifluoroacetate]", "301 to 1000 nM"),
]

Next, consider the following compound.
## Input Any idea what its IC50 is? The compound is CC[C@H](C)Nc1nc(Nc2ccc(P(C)(C)=O)cc2OC)nc2[nH]cc(C#N)c12
## Output 301 to 1000 nM

* * *

Test system: human DYRK1A and tau
Assay: Inhibition of tau phosphorylation, ClariCELL Kinase Cell-Based Assay, HEK 293 cells expressing human DYRK1A and tau
Conditions: HEK293, tau phosphorylation, compound 0.5 uM
measured_parameter: inhibition at 0.5 µM (%)
Return type: number; implicit unit %.

Worked examples follow.
# smiles_code, unit, inhibition at 0.5 µM
measured = [
    ("N#Cc1c[nH]c2nc(Nc3ccc(C(=O)N4CCC(N5CCOCC5)CC4)c4c3OCC4)nc(NCC3CCCC3)c12", "%", 16.7),
    ("COCCNc1nc(Nc2ccc(C(=O)N3CCC(N4CCOCC4)CC3)c3c2OCC3)nc2[nH]cc(C#N)c12", "%", 42.8),
    ("CNc1nc(Nc2ccc(C(=O)N3CCOCC3)c3c2OCC3)nc2[nH]cc(C(F)(F)F)c12", "%", 84.3),
    ("CNc1nc(Nc2ccc(C(=O)N3CCC(N4CCOCC4)CC3)c3c2OCC3)nc2[nH]cc(C(F)(F)F)c12", "%", 63.7),
]

## Input Which inhibition at 0.5 µM value belongs to O=C(c1ccc(Nc2nc(NC3CC3)c3c(C(F)(F)F)c[nH]c3n2)c2c1OCCO2)N1CCN(C2COC2)CC1 ?
## Output 44

## Input One more molecule: O=C(c1ccc(Nc2nc(N[C@@H]3CCOC3)c3c(C(F)(F)F)c[nH]c3n2)c2c1OCCO2)N1CCN(C2COC2)CC1
## Output 75.9

## Input Repeat with CNc1nc(Nc2ccc(C(=O)N3C[C@@H]4C[C@H]3CO4)c3c2OCCO3)nc2[nH]cc(C(F)(F)F)c12
## Output 40.3

## Input One more molecule: CCNc1nc(Nc2ccc(C(=O)N3CC(CO)(CO)C3)c3c2OCCO3)nc2[nH]cc(C#N)c12
## Output 13.6

## Input Same again, this time with COc1cc(P2(=O)CCN(C3CC3)CC2)ccc1Nc1nc(NC(C)C)c2c(C(F)(F)F)c[nH]c2n1
## Output 27.8

## Input // same read-out, input: CCCNc1nc(Nc2ccc(S(=O)(=O)N3CCC(N4CCOCC4)CC3)cc2OC)nc2[nH]cc(C(F)(F)F)c12
## Output 27.9

## Input Please do the same for CNc1nc(Nc2ccc(C(=O)N3CC(CO)(CO)C3)c3c2OCCO3)nc2[nH]cc(C#N)c12 as well.
## Output 13.5

## Input Try this molecule too: CNc1nc(Nc2ccc(C(=O)N3CC[C@H](N4CCOCC4)C3)c3c2OCC3)nc2[nH]cc(C(F)(F)F)c12
## Output 59.5

* * *

Tested on: human DYRK1A and tau
Assay: Inhibition of tau phosphorylation, ClariCELL Kinase Cell-Based Assay, HEK 293 cells expressing human DYRK1A and tau
Conditions: HEK293, tau phosphorylation, compound 0.5 uM
Use 40% as the dividing line for inhibition at 0.5 µM, with the line itself on the label 1 side and lower values as label 0.

# compound, classification
data = [
    ("O=C(c1ccc(Nc2nc(NC3CC3)c3c(C(F)(F)F)c[nH]c3n2)c2c1CCO2)N1CCC(N2CCOCC2)CC1", "label 1"),
    ("CCCNc1nc(Nc2ccc(C(=O)N3CCC(N4CCOCC4)CC3)c3c2OCC3)nc2[nH]cc(C#N)c12", "label 0"),
    ("N#Cc1c[nH]c2nc(Nc3ccc(C(=O)N4CCN(C5COC5)CC4)c4c3OCCO4)nc(N[C@H]3CCOC3)c12", "label 0"),
    ("CCNc1nc(Nc2ccc(S(=O)(=O)N3CCC(N4CCOCC4)CC3)cc2OC)nc2[nH]cc(C(F)(F)F)c12 [Example 158, 2,2,2-trifluoroacetate]", "label 1"),
]

## Input Reported inhibition at 0.5 µM at or above 40%? N#Cc1c[nH]c2nc(Nc3ccc(C(=O)N4CCC(N5CCOCC5)CC4)c4c3OCC4)nc(NC3CCCCC3)c12
## Output label 0

## Input Follow-up entry: COc1cc(S(=O)(=O)N2CCOCC2)ccc1Nc1nc(C2CC2)c2c(C(F)(F)F)c[nH]c2n1
## Output label 0

* * *

Test system: human DYRK1A and tau
Experiment: Inhibition of tau phosphorylation, ClariCELL Kinase Cell-Based Assay, HEK 293 cells expressing human DYRK1A and tau
Details: HEK293, tau phosphorylation, compound 0.5 uM
measured_parameter: inhibition at 0.5 µM (%)
Give just the numeric value; % need not be written.

Worked examples, 6 compounds total:
# compound, tested_system, inhibition at 0.5 µM, %
records = [
    ("O=C(c1ccc(Nc2nc(NCC3CCCC3)c3c(C(F)(F)F)c[nH]c3n2)c2c1CCO2)N1CCC(N2CCOCC2)CC1 [Example 464]", "human DYRK1A and tau", 12.4),
    ("CCCCNc1nc(Nc2ccc(C(=O)N3CCC(N4CCOCC4)CC3)c3c2OCC3)nc2[nH]cc(C(F)(F)F)c12 [Example 466]", "human DYRK1A and tau", 39.2),
    ("CCNc1nc(Nc2ccc(C(=O)N3CCC(N4CCOCC4)CC3)c3c2OCC3)nc2[nH]cc(C#N)c12 [Example 347]", "human DYRK1A and tau", 42.6),
    ("CCNc1nc(Nc2ccc(C(=O)N3CCC(N4C[C@@H]5C[C@H]4CO5)CC3)c3c2OCC3)nc2[nH]cc(C(F)(F)F)c12 [Example 468]", "human DYRK1A and tau", 75.4),
    ("O=C(c1ccc(Nc2nc(C3CC3)c3c(C(F)(F)F)c[nH]c3n2)c2c1OCCO2)N1CCC(N2CCOCC2)CC1 [Example 228]", "human DYRK1A and tau", 24.7),
    ("CCNc1nc(Nc2ccc(C(=O)N3CCC(N4CCOCC4)CC3)c3c2OCC3)nc2[nH]cc(C(F)(F)F)c12 [Example 438]", "human DYRK1A and tau", 69.7),
]

Then this compound:
## Input Using the record for O=S(=O)(c1ccc(Nc2nc(C3CC3)c3c(C(F)(F)F)c[nH]c3n2)c2c1OCCO2)N1CCOCC1 [Example 470] , report its inhibition at 0.5 µM.
## Output 19.2
